# TESTED SYSTEM: Full length human recombinant HDAC11 (Homo sapiens, UniProt Q96DB2)
# Construct: Full length human recombinant HDAC6 and HDAC11 proteins were expressed in baculoviral system
# Sequence (Q96DB2 whole entry): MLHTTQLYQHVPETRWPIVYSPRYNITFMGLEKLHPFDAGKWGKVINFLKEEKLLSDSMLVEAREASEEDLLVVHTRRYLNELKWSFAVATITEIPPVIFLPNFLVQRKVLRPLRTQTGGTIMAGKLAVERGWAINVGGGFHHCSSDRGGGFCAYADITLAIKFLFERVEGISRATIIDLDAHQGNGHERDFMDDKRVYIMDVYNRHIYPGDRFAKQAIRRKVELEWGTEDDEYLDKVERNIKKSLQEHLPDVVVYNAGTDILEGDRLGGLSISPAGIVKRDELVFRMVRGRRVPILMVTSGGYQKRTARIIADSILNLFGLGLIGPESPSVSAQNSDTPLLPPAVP
# EXPERIMENT SUMMARY: In vitro histone deacetylase assay, enzymatic HDAC11 (electrophoretic mobility shift assay)
# PARTICULARS: 10 nM HDAC11; 2 μM peptide substrate FAM-RHKK(tri-fluor-Ac)—NH2; 25° C.; 12 concentrations; read-out: HDAC11 Activity Range (IC50)
QUANTITY MEASURED: IC50

>>> val("COc1ccc(CN2CCC3(CCc4ccc(C(=O)NO)cc4O3)CC2)cc1")
"> 500 nM"
>>> val("CC(C)CN1C[C@@]2(CCc3ccc(C(=O)NO)cc3C2)CC1=O")
"> 500 nM"
>>> val("COc1ccccc1N1CC[C@@]2(CCc3ccc(C(=O)NO)cc3C2)C1=O")
"> 500 nM"

* * *

# TESTED SYSTEM: Full length human recombinant HDAC6 (Homo sapiens)
# Construct: Full length human recombinant HDAC6 and HDAC11 proteins were expressed in baculoviral system
# Sequence (Q9UBN7 whole entry): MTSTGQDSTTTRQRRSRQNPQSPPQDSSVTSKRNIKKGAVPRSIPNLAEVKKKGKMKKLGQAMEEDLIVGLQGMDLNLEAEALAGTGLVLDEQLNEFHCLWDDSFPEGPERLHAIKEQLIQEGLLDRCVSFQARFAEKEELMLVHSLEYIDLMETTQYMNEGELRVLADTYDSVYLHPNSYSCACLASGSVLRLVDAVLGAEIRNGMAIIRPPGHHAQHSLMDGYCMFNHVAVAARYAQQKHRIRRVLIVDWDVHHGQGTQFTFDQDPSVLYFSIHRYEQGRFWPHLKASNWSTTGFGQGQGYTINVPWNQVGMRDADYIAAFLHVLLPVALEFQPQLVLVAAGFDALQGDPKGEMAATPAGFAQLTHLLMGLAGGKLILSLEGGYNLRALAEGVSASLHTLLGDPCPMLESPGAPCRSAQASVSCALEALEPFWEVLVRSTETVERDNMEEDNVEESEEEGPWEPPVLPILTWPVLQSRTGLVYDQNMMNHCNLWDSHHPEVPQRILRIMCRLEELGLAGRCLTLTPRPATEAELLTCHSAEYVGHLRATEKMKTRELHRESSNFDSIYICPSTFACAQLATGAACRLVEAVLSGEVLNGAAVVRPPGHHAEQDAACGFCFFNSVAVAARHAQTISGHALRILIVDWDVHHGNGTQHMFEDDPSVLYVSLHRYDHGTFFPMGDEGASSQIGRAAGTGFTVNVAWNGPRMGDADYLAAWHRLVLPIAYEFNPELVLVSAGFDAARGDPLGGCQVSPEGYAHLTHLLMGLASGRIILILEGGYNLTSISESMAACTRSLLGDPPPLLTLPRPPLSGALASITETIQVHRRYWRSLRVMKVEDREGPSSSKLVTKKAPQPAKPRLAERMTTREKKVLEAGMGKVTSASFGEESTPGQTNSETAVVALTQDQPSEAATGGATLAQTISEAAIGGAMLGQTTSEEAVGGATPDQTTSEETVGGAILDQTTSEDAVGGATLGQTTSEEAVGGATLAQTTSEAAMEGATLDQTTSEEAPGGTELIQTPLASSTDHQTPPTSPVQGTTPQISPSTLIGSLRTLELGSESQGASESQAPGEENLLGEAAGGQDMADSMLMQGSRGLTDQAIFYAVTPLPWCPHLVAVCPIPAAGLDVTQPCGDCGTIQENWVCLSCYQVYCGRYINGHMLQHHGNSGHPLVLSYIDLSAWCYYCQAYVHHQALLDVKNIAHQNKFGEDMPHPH
# EXPERIMENT SUMMARY: In vitro histone deacetylase assay, enzymatic HDAC6 (electrophoretic mobility shift assay)
# PARTICULARS: 1 nM HDAC6; 2 μM peptide substrate FAM-RHKK(Ac)—NH2; 25° C.; 12 concentrations; read-out: HDAC6 Activity Range (IC50)
pIC50: −log10 of the molar value.
QUANTITY MEASURED: pIC50

>>> val("COc1ccc(CCN2CCC3(CCc4ccc(C(=O)NO)cc4C3)C2=O)cc1 (centres unmarked) [Compound I-20]")
"≥ 7.00"
>>> val("CN1CC[C@]2(CCc3ccc(C(=O)NO)cc3C2)C1 [Compound I-19]")
"6.30 to 7.00"
>>> val("O=C(NO)c1ccc2c(c1)C[C@]1(CC2)CCN(Cc2cc(Cl)ccc2Cl)C1=O [Compound I-94]")
"≥ 7.00"
>>> val("O=C(NO)c1ccc2c(c1)C[C@@]1(CC2)CCN(c2ccccc2)C1 [Compound I-16]")
"≥ 7.00"
>>> val("O=C(NO)c1ccc2c(c1)C[C@]1(CC2)CCN(Cc2cccc(F)c2)C1=O [Compound I-99]")
"≥ 7.00"
>>> val("CC(C)N1CCC2(CCc3ccc(C(=O)NO)cc3C2)C1=O (centres unmarked) [Compound I-24]")
"6.30 to 7.00"
>>> val("O=C(NO)c1ccc2c(c1)C[C@@]1(CC2)CCN(Cc2c(Cl)cccc2Cl)C1=O [Compound I-68]")
"≥ 7.00"
>>> val("COc1ccc(CN2CC[C@@]3(CCc4ccc(C(=O)NO)cc4C3)C2=O)cc1 [Compound I-75]")
"≥ 7.00"
>>> val("COc1ccc(CN2CC[C@]3(CCc4ccc(C(=O)NO)cc4C3)C2=O)cc1 [Compound I-102]")
"≥ 7.00"
>>> val("O=C(NO)c1ccc2c(c1)CC1(CC2)CCN(c2ccccc2)C1=O (centres unmarked) [Compound I-26]")
"≥ 7.00"
>>> val("CCCN1CC[C@]2(CCc3ccc(C(=O)NO)cc3C2)C1=O [Compound I-79]")
"≥ 7.00"
>>> val("CN1CC[C@@]2(CCc3ccc(C(=O)NO)cc3C2)C1=O [Compound I-121]")
"≥ 7.00"
>>> val("O=C(NO)c1ccc2c(c1)C[C@@]1(CC2)CCN(c2ccc(Oc3ccccc3)cc2)C1=O [Compound I-116]")
"≥ 7.00"
>>> val("O=C(NO)c1ccc2c(c1)C[C@@]1(CC2)CCN(Cc2ccc3ccccc3c2)C1=O [Compound I-77]")
"≥ 7.00"
>>> val("O=C(NO)c1ccc2c(c1)C[C@]1(CC2)CC(=O)N(c2ccccc2)C1 [Compound I-145]")
"≥ 7.00"
>>> val("O=C(NO)c1ccc2c(c1)C[C@@]1(CC2)CCN(CC2CCOCC2)C1=O [Compound I-57]")
"≥ 7.00"
>>> val("CN1CCC2(CCc3ccc(C(=O)NO)cc3C2)C1 (centres unmarked) [Compound I-9]")
"6.30 to 7.00"
